Biological target: D(4) dopamine receptor (Homo sapiens)
Sequence (P21917 whole entry): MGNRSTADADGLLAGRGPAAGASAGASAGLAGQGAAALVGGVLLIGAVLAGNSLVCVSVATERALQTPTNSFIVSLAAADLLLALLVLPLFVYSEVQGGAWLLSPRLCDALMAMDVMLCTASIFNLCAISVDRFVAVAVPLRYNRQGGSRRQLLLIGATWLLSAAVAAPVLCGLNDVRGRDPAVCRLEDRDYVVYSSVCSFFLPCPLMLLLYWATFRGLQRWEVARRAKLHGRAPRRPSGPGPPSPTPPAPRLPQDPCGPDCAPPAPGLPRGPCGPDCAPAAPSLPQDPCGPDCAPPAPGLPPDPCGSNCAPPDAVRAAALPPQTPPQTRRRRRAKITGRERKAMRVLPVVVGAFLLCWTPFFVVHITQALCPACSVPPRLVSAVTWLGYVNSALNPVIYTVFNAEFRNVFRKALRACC
Experiment: Agonist activity at human D4.4 receptor in HEK293 cells coexpressing G-alpha-qo5 by FLIPR
pEC50: −log10 of the molar value.
We use 7 as the dividing line for pEC50: on or above the line is Criterion met, below is Criterion not met.

Oc1ccc(N2CCN(Cc3nc4ccccc4[nH]3)CC2)nc1 Criterion met
Cc1cccc(NC(=O)CN2CCC(c3ccccn3)CC2)c1 Criterion met

Could you verify whether the entry "O=C(NCN1CCC(c2cccc[n+]2[O-])CC1)c1ccccn1" shows pEC50 of no less than 7?
Criterion not met

# bool: pEC50 of "Cc1cc(F)ccc1NC(=O)CN1CCC(c2cccc[n+]2[O-])CC1" >= 7
Criterion met

Please indicate if the recorded pEC50 for "Cc1cccc(NC(=O)CN2CCC(c3ncccc3C#N)CC2)c1" meets or exceeds 7.
Criterion met

Dear colleague, could you confirm whether "c1ccc(C2CCN(Cc3nc4ccccc4[nH]3)CC2)nc1" has pEC50 at or above 7?
Criterion met

Please check the record "COc1cccc(C(=O)NCN2CCC(c3cccc[n+]3[O-])CC2)c1C" and state if its pEC50 is at or above 7.
Criterion not met

Does pEC50 meet or surpass 7 for "O=C(CN1CCC(c2cccc[n+]2[O-])CC1)Nc1ccc(F)cc1C(F)(F)F" ?
Criterion not met

Identify whether the reported pEC50 of the following molecule is 7 or greater: "Cc1cccc(NC(=O)CN2CCC(c3ccc(O)cn3)CC2)c1"
Criterion met

Determine whether this molecule has pEC50 no lower than 7: "O=C(CN1CCC(c2cccc[n+]2[O-])CC1)Nc1ccccc1F"
Criterion not met

Please indicate if the recorded pEC50 for "Cc1cc(C(=O)NCN2CCC(c3cccc[n+]3[O-])CC2)ccc1Cl" meets or exceeds 7.
Criterion not met

Is the recorded value of pEC50 equal to or greater than 7 for this molecule? "Cc1cccc(NC(=O)CN2CCC(c3ccccc3)CC2)c1"
Criterion not met

Exam item: decide whether the reported pEC50 for "Cc1cccc(NC(=O)CN2CCC(c3ccccc3C)CC2)c1" is at least 7.
Criterion not met

Is reported pEC50 greater than or equal to 7 here: "Cc1cccc(NC(=O)CN2CCC(c3cccc(F)c3)CC2)c1"
Criterion not met

State whether the measured pEC50 reaches 7, counting equality as reaching it, for "Cc1cccc(Cl)c1NC(=O)CN1CCC(c2ccccn2)CC1"
Criterion met

Please tell me: is the molecule "O=C(CN1CCC(c2cccc[n+]2[O-])CC1)Nc1cccc(-c2ccccc2)c1" at or over 7 in terms of pEC50?
Criterion not met
